Origin of values: patent US20230210857A1

Experiment: Three-phase pharmacokinetics (PK) study in minipigs, single IV and IM doses
Conditions: male, Gottingen, minipig, in vivo, iv, 4.8 mg/kg, Mean plasma concentration
Reported endpoint: concentration at 0.167 hr (ng/mL)
Give a bare numeral; the unit ng/mL is implied.

# input Consider the compound CCCNc1nc(NCCC)nc(N(C)OC)n1 and give its measured concentration at 0.167 hr.
# output 2010

---

Assay: Three-phase pharmacokinetics (PK) study in minipigs, single IV and IM doses
Details: male, Gottingen, minipig, in vivo, Bioavailability
Protocol: The study consisted of conducting a bioequivalence (BE) study in minipigs. Two formulations of a Compound having Formula (I) (N-(4,6-Bis-n-propylamino-[1,3,5]triazin-2-yl)-O,N-dimethyl-hydroxylamine) were tested in the study as follows: For IV administration, minipigs (n=3) received a single IV bolus (1-2 minutes) administration of the Compound having Formula (I) (N-(4,6-Bis-n-propylamino-[1,3,5]triazin-2-yl)-O,N-dimethyl-hydroxylamine) via VAP (vascular access port) at the jugular vein. […]
Reported endpoint: bioavailability (%)
Field format: number, assumed %, no unit text.

# input Which bioavailability is reported for this molecule? CCCNc1nc(NCCC)nc(N(C)OC)n1
# output 113
